subject of test: T1, human NPR1 extracellular domain expressed with a C-terminal mouse IgG2a (hNPR1-mFc) (human)
T1 construct: also called hNPR1-Fc; human NPR1 dimer
T1 chain: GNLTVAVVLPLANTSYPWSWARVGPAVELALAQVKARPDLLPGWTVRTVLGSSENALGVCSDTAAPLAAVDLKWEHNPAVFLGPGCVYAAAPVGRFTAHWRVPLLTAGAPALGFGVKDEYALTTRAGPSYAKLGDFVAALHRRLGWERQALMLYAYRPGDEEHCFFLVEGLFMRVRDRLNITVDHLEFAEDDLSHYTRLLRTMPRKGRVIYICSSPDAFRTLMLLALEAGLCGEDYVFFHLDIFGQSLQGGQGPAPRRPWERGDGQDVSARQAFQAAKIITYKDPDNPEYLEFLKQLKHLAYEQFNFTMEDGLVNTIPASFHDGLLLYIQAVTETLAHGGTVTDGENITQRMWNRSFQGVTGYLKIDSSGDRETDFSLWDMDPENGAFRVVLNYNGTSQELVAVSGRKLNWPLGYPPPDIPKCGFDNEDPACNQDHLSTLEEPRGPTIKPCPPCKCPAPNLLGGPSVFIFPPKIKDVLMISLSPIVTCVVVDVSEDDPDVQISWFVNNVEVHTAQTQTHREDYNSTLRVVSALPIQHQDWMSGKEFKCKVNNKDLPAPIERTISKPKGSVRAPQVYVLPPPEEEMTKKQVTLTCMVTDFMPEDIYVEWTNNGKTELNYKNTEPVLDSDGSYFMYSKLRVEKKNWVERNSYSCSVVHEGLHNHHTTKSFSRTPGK
assay text: SPR, mAb captured, 25 C
pKd: −log10 of the molar value.

binder	pKd
mAb25491 (antibody, V domains shown) VH: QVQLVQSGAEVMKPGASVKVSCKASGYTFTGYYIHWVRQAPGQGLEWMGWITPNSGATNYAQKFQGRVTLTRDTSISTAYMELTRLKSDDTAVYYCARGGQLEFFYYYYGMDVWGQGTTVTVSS VL: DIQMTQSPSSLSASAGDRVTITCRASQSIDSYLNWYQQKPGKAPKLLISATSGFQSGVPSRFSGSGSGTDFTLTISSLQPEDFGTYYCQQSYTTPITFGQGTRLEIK	8.91
